molecular target: GABAA receptors (α5β2γ2) (Homo sapiens, UniProt P18507+P31644); construct: expressed in transfected cells; experiment: Positive allosteric modulator activity: potentiation of EC20 GABA current in oocytes; assay type: cell-based; conditions: read-out: GABA α5 Functional Data (potentiation of EC20 GABA); @ 100 nM; ranges
Sequence (P31644 32-462): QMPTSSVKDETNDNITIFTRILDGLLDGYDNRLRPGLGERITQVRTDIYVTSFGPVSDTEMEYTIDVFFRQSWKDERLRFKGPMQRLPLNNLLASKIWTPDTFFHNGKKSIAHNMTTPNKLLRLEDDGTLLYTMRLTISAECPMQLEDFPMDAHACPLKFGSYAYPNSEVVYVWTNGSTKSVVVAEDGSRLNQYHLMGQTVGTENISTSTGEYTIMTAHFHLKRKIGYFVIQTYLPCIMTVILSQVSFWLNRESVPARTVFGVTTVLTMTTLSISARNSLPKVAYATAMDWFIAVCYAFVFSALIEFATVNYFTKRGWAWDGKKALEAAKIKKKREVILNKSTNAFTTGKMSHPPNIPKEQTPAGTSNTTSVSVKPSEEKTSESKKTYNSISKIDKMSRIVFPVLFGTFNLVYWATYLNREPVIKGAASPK
Sequence (P47870 25-512, further chain): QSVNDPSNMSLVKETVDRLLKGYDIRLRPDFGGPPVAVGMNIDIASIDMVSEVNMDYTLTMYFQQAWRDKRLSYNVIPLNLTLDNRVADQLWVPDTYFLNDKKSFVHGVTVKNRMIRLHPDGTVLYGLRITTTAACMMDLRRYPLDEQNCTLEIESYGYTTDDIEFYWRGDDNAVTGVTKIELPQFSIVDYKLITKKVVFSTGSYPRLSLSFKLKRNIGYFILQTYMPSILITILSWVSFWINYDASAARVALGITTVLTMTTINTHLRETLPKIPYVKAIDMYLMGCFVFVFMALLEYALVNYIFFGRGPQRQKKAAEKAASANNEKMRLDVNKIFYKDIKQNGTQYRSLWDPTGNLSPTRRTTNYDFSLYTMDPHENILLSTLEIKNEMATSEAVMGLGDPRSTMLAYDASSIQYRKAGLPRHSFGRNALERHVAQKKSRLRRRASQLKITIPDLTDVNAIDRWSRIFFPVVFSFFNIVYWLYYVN
Sequence (P18507 40-475): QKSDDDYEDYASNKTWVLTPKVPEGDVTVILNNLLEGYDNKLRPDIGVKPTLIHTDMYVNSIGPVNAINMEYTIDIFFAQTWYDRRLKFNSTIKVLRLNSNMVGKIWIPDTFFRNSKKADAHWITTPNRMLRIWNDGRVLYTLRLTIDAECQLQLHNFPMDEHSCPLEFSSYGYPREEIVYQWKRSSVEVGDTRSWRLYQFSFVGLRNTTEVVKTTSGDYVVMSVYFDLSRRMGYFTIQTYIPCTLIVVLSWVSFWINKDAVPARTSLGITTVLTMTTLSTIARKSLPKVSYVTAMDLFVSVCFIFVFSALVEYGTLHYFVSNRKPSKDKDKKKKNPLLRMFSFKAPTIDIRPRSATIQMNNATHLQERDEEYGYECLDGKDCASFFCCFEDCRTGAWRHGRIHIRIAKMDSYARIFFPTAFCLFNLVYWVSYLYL
Reported activation at 0.1 µM by item:
PROPERTY LABEL: activation at 0.1 µM

[
  {
    "SUBSTANCE SMILES": "COCc1nnc2n1Cc1c(C#Cc3ccc(C)nc3)ncn1-c1ccc(OC)cc1-2",
    "PROPERTY LABEL": "activation at 0.1 µM",
    "EXPERIMENTAL VALUE": "20 to 50%"
  },
  {
    "SUBSTANCE SMILES": "COCc1nnc2n1Cc1c(C#Cc3cnc(OC)c(C)c3)ncn1-c1ccc(Cl)cc1-2",
    "PROPERTY LABEL": "activation at 0.1 µM",
    "EXPERIMENTAL VALUE": "5 to 20%"
  },
  {
    "SUBSTANCE SMILES": "Clc1ccc2c(c1)-n1nncc1Cc1c(-c3noc(-c4ccccc4)n3)ncn1-2",
    "PROPERTY LABEL": "activation at 0.1 µM",
    "EXPERIMENTAL VALUE": "20 to 50%"
  },
  {
    "SUBSTANCE SMILES": "COCc1nnc2n1Cc1c(C#Cc3cnccn3)ncn1-c1ccc(OC)cc1-2",
    "PROPERTY LABEL": "activation at 0.1 µM",
    "EXPERIMENTAL VALUE": "> 50%"
  },
  {
    "SUBSTANCE SMILES": "COCc1nnc2n1Cc1c(C#Cc3cc(C)cnn3)ncn1-c1ccc(Cl)cc1-2",
    "PROPERTY LABEL": "activation at 0.1 µM",
    "EXPERIMENTAL VALUE": "20 to 50%"
  },
  {
    "SUBSTANCE SMILES": "CC(C)c1nc(-c2ncn3c2Cc2cnnn2-c2cc(Cl)ccc2-3)no1",
    "PROPERTY LABEL": "activation at 0.1 µM",
    "EXPERIMENTAL VALUE": "20 to 50%"
  },
  {
    "SUBSTANCE SMILES": "COc1ccc2c(c1)-n1nncc1Cc1c(C#CC(C)(C)C)ncn1-2",
    "PROPERTY LABEL": "activation at 0.1 µM",
    "EXPERIMENTAL VALUE": "5 to 20%"
  },
  {
    "SUBSTANCE SMILES": "COc1ccc2c(c1)-n1nncc1Cc1c(C#CCc3cccc(Cl)c3)ncn1-2",
    "PROPERTY LABEL": "activation at 0.1 µM",
    "EXPERIMENTAL VALUE": "5 to 20%"
  }
]
